Assay: Plasma exposure (dried blood spot) after single oral dose
Type: in vivo
Settings: male, Sprague Dawley, rat, whole blood (dried blood spot), po, 3 mg/kg, oral 3 mg/kg, 4 h, dried blood spot, read-out: Concentration, Mean
MEASURED METRIC: concentration at 4 h (µM)
Please reply with the bare figure in µM and do not write the unit itself.

## Input // concentration at 4 h lookup, key: O=c1c2nnc(C3(C4CC4)CC3)n2c2c(n1CC1CC1)CCCC2
## Output 2.79

###

Assay: Plasma exposure (dried blood spot) after single oral dose
Format: in vivo
Conditions: male, Sprague Dawley, rat, whole blood (dried blood spot), po, 0.03 mg/kg, oral 0.03 mg/kg, 5 h, FU 0.053, read-out: Unbound Concentration, Mean
Protocol: Male Sprague Dawley rats at 6 to 7 weeks were dosed orally by p.o. gavage with different doses of BTTQ formulated in 1% hydroxyethlycellulose (Dow Corning, Midland, MI, United States) (w/v), 0.25% polysorbate 80 (Sigma-Aldrich, St. Louis, MO, United States) (v/v), and 0.05% antifoam (v/v; Dow Corning, Midland, MI, United States) in purified water. […]
MEASURED METRIC: concentration at 5 h
Value and unit, in that order.

## Input // concentration at 5 h lookup, key: O=c1c2nnc(C3(C4CC4)CC3)n2c2c(n1CC1CC1)CCCC2
## Output 1.5 nM

###

Test: Plasma exposure (dried blood spot) after single oral dose
Format: in vivo
Details: male, Sprague Dawley, rat, whole blood (dried blood spot), po, 1 mg/kg, oral 1 mg/kg, 4 h, FU 0.053, read-out: Unbound Concentration, individual animals
MEASURED METRIC: concentration at 4 h (nM)
Please reply with the bare figure in nM and do not write the unit itself.

## Input // concentration at 4 h lookup, key: O=c1c2nnc(C3(C4CC4)CC3)n2c2c(n1CC1CC1)CCCC2 [BTTQ]
## Output 47.7

###

Assay: Plasma exposure (dried blood spot) after single oral dose
Format: in vivo
Details: male, Sprague Dawley, rat, whole blood (dried blood spot), po, 0.1 mg/kg, oral 0.1 mg/kg, 5 h, dried blood spot, read-out: Concentration, Mean
MEASURED METRIC: concentration at 5 h (nM)
Please reply with the bare figure in nM and do not write the unit itself.

## Input // concentration at 5 h lookup, key: O=c1c2nnc(C3(C4CC4)CC3)n2c2c(n1CC1CC1)CCCC2
## Output 96.9

###

Target: Rat PDE3A (Rattus norvegicus, UniProt Q62865)
Construct: made in house; host or cells: baculovirus-infected insect cells
Sequence (Q62865 1-1141): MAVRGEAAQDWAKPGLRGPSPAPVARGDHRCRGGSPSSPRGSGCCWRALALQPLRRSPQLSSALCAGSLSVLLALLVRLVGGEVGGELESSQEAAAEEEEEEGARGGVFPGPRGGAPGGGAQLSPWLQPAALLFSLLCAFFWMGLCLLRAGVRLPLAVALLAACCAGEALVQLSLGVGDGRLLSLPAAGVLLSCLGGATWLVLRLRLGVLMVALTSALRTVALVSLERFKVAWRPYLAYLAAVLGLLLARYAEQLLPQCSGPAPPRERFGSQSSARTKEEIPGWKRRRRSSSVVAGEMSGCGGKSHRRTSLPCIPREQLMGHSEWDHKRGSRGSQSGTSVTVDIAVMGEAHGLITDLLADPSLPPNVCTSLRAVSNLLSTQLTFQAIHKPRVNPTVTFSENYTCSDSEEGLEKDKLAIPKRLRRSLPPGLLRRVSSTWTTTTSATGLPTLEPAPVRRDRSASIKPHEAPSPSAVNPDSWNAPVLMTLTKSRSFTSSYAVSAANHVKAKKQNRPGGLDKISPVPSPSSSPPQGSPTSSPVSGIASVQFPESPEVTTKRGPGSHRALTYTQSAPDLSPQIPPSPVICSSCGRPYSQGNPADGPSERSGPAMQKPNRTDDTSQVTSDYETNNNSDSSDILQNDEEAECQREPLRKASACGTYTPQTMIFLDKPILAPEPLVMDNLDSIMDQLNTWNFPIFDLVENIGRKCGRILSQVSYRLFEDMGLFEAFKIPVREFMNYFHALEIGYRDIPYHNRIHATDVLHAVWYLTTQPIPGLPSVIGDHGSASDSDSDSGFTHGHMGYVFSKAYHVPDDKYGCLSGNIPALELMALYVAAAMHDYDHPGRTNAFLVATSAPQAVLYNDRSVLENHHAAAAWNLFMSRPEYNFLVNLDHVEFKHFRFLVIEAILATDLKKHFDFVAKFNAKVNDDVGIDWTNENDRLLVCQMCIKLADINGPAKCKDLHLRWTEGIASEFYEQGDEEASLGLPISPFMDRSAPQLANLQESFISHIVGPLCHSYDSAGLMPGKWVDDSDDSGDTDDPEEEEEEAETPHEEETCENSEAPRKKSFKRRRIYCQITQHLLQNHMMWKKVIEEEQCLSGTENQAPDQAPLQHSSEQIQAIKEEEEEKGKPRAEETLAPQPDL
Experiment: PDE scintillation proximity enzyme assay
Assay type: biochemical
Conditions: read-out: IC50
MEASURED METRIC: IC50

## Input // IC50 lookup, key: O=c1c2nnc(C3(C4CC4)CC3)n2c2c(n1CC1CC1)CCCC2 [BTTQ]
## Output > 100 µM

###

Test: Plasma exposure (dried blood spot) after single oral dose
Format: in vivo
Details: male, Sprague Dawley, rat, whole blood (dried blood spot), po, 0.3 mg/kg, oral 0.3 mg/kg, 4 h, FU 0.053, read-out: Unbound Concentration, individual animals
MEASURED METRIC: concentration at 4 h (nM)
Please reply with the bare figure in nM and do not write the unit itself.

## Input // concentration at 4 h lookup, key: O=c1c2nnc(C3(C4CC4)CC3)n2c2c(n1CC1CC1)CCCC2
## Output 12.3

###

Assay: Plasma exposure (dried blood spot) after single oral dose
Type: in vivo
Conditions: male, Sprague Dawley, rat, whole blood (dried blood spot), po, 3 mg/kg, oral 3 mg/kg, 4 h, FU 0.053, read-out: Unbound Concentration, Mean
Experimental: Male Sprague Dawley rats at 6 to 7 weeks were dosed orally by p.o. gavage with different doses of BTTQ formulated in 1% hydroxyethlycellulose (Dow Corning, Midland, MI, United States) (w/v), 0.25% polysorbate 80 (Sigma-Aldrich, St. Louis, MO, United States) (v/v), and 0.05% antifoam (v/v; Dow Corning, Midland, MI, United States) in purified water. […]
MEASURED METRIC: concentration at 4 h (nM)
Please reply with the bare figure in nM and do not write the unit itself.

## Input // concentration at 4 h lookup, key: O=c1c2nnc(C3(C4CC4)CC3)n2c2c(n1CC1CC1)CCCC2 [BTTQ]
## Output 148

###

Assay: Plasma exposure (dried blood spot) after single oral dose
Assay type: in vivo
Conditions: male, Sprague Dawley, rat, whole blood (dried blood spot), po, 0.3 mg/kg, oral 0.3 mg/kg, 24 h, dried blood spot, read-out: Concentration, Mean
MEASURED METRIC: concentration at 24 h (nM)
Please reply with the bare figure in nM and do not write the unit itself.

## Input // concentration at 24 h lookup, key: O=c1c2nnc(C3(C4CC4)CC3)n2c2c(n1CC1CC1)CCCC2
## Output 0

###

Assay: Plasma exposure (dried blood spot) after single oral dose
Format: in vivo
Settings: male, Sprague Dawley, rat, whole blood (dried blood spot), po, 1 mg/kg, oral 1 mg/kg, 1 h, dried blood spot, read-out: Concentration, Mean
MEASURED METRIC: concentration at 1 h (nM)
Please reply with the bare figure in nM and do not write the unit itself.

## Input // concentration at 1 h lookup, key: O=c1c2nnc(C3(C4CC4)CC3)n2c2c(n1CC1CC1)CCCC2 [BTTQ]
## Output 1750

###

Assay: Plasma exposure (dried blood spot) after single oral dose
Assay type: in vivo
Conditions: male, Sprague Dawley, rat, whole blood (dried blood spot), po, 0.03 mg/kg, oral 0.03 mg/kg, 24 h, FU 0.053, read-out: Unbound Concentration, Mean
MEASURED METRIC: concentration at 24 h (nM)
Please reply with the bare figure in nM and do not write the unit itself.

## Input // concentration at 24 h lookup, key: O=c1c2nnc(C3(C4CC4)CC3)n2c2c(n1CC1CC1)CCCC2
## Output 0

###

Assay: Rat PK parameters (IV and oral)
Type: in vivo
Details: in vivo, 1 mg/kg, IV 1 mpk, mean ± SD, 3 animals, read-out: IV t1/2 (converted)
MEASURED METRIC: half-life

## Input // half-life lookup, key: O=c1c2nnc(C3(C4CC4)CC3)n2c2c(n1CC1CC1)CCCC2
## Output 162 min

###

Assay: Plasma exposure (dried blood spot) after single oral dose
Type: in vivo
Settings: male, Sprague Dawley, rat, whole blood (dried blood spot), po, 0.1 mg/kg, oral 0.1 mg/kg, 2 h, dried blood spot, read-out: Concentration, Mean
MEASURED METRIC: concentration at 2 h (nM)
Please reply with the bare figure in nM and do not write the unit itself.

## Input // concentration at 2 h lookup, key: O=c1c2nnc(C3(C4CC4)CC3)n2c2c(n1CC1CC1)CCCC2
## Output 189
